Where these numbers come from: paper PMC11480844

ratio to parent values, listed per item
B1: H2-Kb / Ed40 (parent complex)
chain 1: GDSVTQTEGPVTVSESESLIINCTYSATSIAYPNLFWYVRYPGEGLQLLLKVITAGQKGSSRGFEATYNKETTSFHLQKASVQESDSAVYYCALGDGYTGNYKYVFGAGTRLKVIA
chain 2: DSGVVQSPRHIIKEKGGRSVLTCIPISGHSNVVWYQQTLGKELKFLIQHYEKVERDKGFLPSRFSVQQFDDYHSEMNMSALELEDSAMYFCASSGASAETLYFGSGTRLTVL
chain 3: not shown
chain 4: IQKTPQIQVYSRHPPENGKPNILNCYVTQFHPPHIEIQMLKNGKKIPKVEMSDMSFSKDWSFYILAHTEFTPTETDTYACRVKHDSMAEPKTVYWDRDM
chain 5: SIINFEKL

variants of: B1; test: % of reporter cells activated (NFAT-GFP), raw; also: test concentration or dose not given here

{"columns": ["MUTANT LABEL", "ratio to parent"],
 "data": [
  ["chain 5 E6F", 0.0664],
  ["chain 5 S1F", 0.765],
  ["chain 5 I3W", 0.488],
  ["chain 5 N4L", 0.086],
  ["chain 5 E6Y", 0.0704],
  ["chain 5 F5L", 0.906],
  ["chain 5 I2F", 1]
]}
